Reference source: PubChem BioAssay (NCI)

Tested on: SK-MEL-5 melanoma
TEST: NCI-60 one-dose screen, 48 h (100 = growth as untreated, 0 = no growth, -100 = all killed)
STATED CONDITIONS: 10 µM
Compounds without any hit were thinned out: in the full panel of roughly 83,000, 20% have a hit.
Below is a list of entries, each paired with its recorded growth value.
Give the value in % but do not write % after it.

Example molecules with recorded growth:
QUERY: Which value of growth has been reported for O=C1/C(=C/c2ccc([N+](=O)[O-])s2)Oc2cc(Cl)ccc21 in the records?
RESULT: 17.6

QUERY: Would you kindly repeat that for O=C(CSc1nnc(-c2cccnc2SCc2ccccc2)o1)Nc1nc(Cl)cc(Cl)n1 ?
RESULT: 101

QUERY: Next entry: C#CC(C)(O)[C@@H]1C[C@H](CC(=O)O)C1(C)C (stereo not given in full)
RESULT: 115

QUERY: Next molecule up: O=S(=O)(O)c1cccc(Nc2ccc3ccccc3c2)c1
RESULT: 99

QUERY: // query: Cc1cc(C(C#N)c2ccc(Cl)cc2)c(Cl)cc1NC(=O)c1cc(I)cc(I)c1O (stereo not given)
RESULT: 13.1

QUERY: Entry COC1=CC(=O)OC(c2ccc(OC)cc2)C1 (stereo not given) please
RESULT: 106

QUERY: Param item: Cc1nn(-c2ccc(-c3ccc(OC(F)(F)F)cc3)cc2)c2nc(Cc3ccccc3)nc(N)c12
RESULT: 87.7

QUERY: Do the same for COc1cc(-c2nn(-c3cccc(NC(=O)CCNc4ccc(N5CCOCC5)cc4)c3)cc2-c2ccncc2)ccc1Cl please
RESULT: -40.5

More entries:
QUERY: Requested read-out: growth. Entry: COC(=O)c1cc2oc(/C=C3/SC(=S)N(N)C3=O)cc2n1Cc1ccccc1
RESULT: 45.4

QUERY: How about this molecule: Nc1nc(-c2cccnc2)nc2c1sc(=S)n2-c1ccccc1
RESULT: 98.6
